molecular target: Cytochrome P450 1A2 (Homo sapiens) (UniProt P05177); assay: Cytochrome panel assay with activity outcomes; settings: recombinant CYP, pro-luciferin dealkylation, luminescence, p450-cyp1a2; series mostly up to 57.1 µM
Sequence (P05177 whole entry, looked up): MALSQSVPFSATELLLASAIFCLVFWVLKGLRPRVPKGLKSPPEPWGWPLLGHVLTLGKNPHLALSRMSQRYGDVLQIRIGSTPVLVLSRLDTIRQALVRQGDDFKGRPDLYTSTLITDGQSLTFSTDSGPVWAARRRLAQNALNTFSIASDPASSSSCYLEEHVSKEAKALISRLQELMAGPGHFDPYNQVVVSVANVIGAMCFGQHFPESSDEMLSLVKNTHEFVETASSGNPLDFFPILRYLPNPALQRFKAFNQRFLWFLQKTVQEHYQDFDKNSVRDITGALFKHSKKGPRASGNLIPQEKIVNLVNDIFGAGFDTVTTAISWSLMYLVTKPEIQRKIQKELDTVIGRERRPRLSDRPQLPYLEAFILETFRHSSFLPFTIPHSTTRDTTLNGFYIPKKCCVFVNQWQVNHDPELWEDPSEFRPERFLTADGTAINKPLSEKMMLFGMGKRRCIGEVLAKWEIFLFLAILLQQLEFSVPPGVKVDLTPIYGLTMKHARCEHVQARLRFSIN
Screen size: about 16,000 compounds; about 5,700 (36%) were called active. Another 24% or so got no clear call; they are omitted. The call rests on the fitted dose curve; in most records, active means well fitted curve in the direction sought with a large enough effect; inconclusive means small, poorly fitted or top-dose-only effect, or effect the other way; inactive means no such curve, though single readings can be large or run the other way. The list shows a part of the results.
Thanks in advance; please answer with one of these: active, inactive

Incoming: # lookup: test call for CCOC(=O)CN(C(=O)CCC(=O)Nc1cc(C)on1)C(C(=O)NC1CCCC1)c1cccnc1 (configuration not stated)
Outgoing: inactive

Incoming: I would be grateful if you could indicate the recorded call for Cc1ccc(COn2c(-c3ccc(Cl)cc3)nc3ccc([N+](=O)[O-])cc32)cc1 .
Outgoing: active

Incoming: Could you kindly confirm the outcome this assay logged for NC(=O)CNC(=O)[C@@H]1CC2(CC(c3cccc([N+](=O)[O-])c3)=NO2)CN1C(=O)c1ccccc1 (some centres not stated) ?
Outgoing: inactive

Incoming: Field: outcome | Entry: CC(C)OC(=O)c1cc2ccccc2oc1=O
Outgoing: active

Incoming: Field: outcome | Entry: COc1ccc(-n2c(=O)c(CCc3ccccc3)nc3cnc(N4CCN(C)CC4)nc32)cc1
Outgoing: inactive

Incoming: Look up the recorded call for O=[N+]([O-])c1ccc2nc(-c3ccccc3)n(OCc3ccc(Cl)cc3)c2c1 in this test.
Outgoing: active

Incoming: # fetch the recorded call for CN1CCN(c2ncnc3ccc(-c4cccc(C#N)c4)cc23)CC1 here
Outgoing: active

Incoming: Can you look up the reported call for COc1ccccc1NC(=O)C(C/C=C(\C)Cl)C(C)=O (configuration not stated) for me?
Outgoing: active

Incoming: Could you please tell me the result logged for Cc1cc(NC(=O)CCC(=O)N(CC2CCCO2)C(C(=O)NC2CCCC2)c2cccnc2)no1 (configuration not stated) in this assay?
Outgoing: inactive

Incoming: # lookup: test call for C[C@@H]1CCN=C(N)S1
Outgoing: inactive

Incoming: Check the results log: what was the call for O=C(O)c1c(Cl)c(Cl)c(Cl)c(Cl)c1C(=O)Nc1ccc2cn[nH]c2c1 ?
Outgoing: active

Incoming: Hi team, can someone confirm the assay call for CCN(CC)c1ccc2cc(C(C)=O)c(=O)oc2c1 ?
Outgoing: active

Incoming: Hello, I am checking results. What call was entered for Cc1ccc[n+](CC(=O)c2cc3ccccc3oc2=O)c1 ?
Outgoing: inactive

Incoming: Could you check what this test reported for C/C(=N\Nc1nc(N)cc(Cl)n1)c1cccc([N+](=O)[O-])c1 ?
Outgoing: active

Incoming: Please let me know the test result on file for CN1CCN(c2ncc3nc(CCc4ccccc4)c(=O)n(C)c3n2)CC1 .
Outgoing: active

====

biological target: Cytochrome P450 1A2 (Homo sapiens) (UniProt P05177); assay: Cytochrome panel assay with activity outcomes; settings: recombinant CYP, pro-luciferin dealkylation, luminescence, p450-cyp1a2; series mostly up to 57.1 µM
The campaign covered roughly 16,000 compounds. About 5,700 (36%) were called active. Another 24% or so got no clear call; they are omitted. The call rests on the fitted dose curve; in most records, active means well fitted curve in the direction sought with a large enough effect; inconclusive means small, poorly fitted or top-dose-only effect, or effect the other way; inactive means no such curve, though single readings can be large or run the other way. The list shows a part of the results.
Write down one outcome, taken from TRUE for active, FALSE for inactive

Incoming: Could you please tell me the result logged for COc1ccc(-n2c(=O)c(-c3cn(C)c4ccccc34)nc3cncnc32)cc1 in this assay?
Outgoing: TRUE

Incoming: In this assay, the call recorded for Cn1cc(-c2nc3cncnc3n(C3CC3)c2=O)c2ccccc21 was what?
Outgoing: TRUE

Incoming: Look up the recorded call for Cn1cc(-c2nc3cncnc3n(-c3ccccc3)c2=O)c2ccccc21 in this test.
Outgoing: TRUE

Incoming: I would be grateful if you could indicate the recorded call for COc1ccc(-n2c(=O)c(-c3cn(C)c4ccccc34)nc3cnc(OC)nc32)cc1 .
Outgoing: FALSE

Incoming: What did the test return for COc1ccc(Oc2ncc3nc(-c4cn(C)c5ccccc45)c(=O)n(C4CC4)c3n2)cc1 ?
Outgoing: TRUE

====

target: Cytochrome P450 1A2 (Homo sapiens) (UniProt P05177); experiment: Cytochrome panel assay with activity outcomes; settings: recombinant CYP, pro-luciferin dealkylation, luminescence, p450-cyp1a2; series mostly up to 57.1 µM
In all, about 16,000 compounds went through this assay and about 5,700 (36%) were called active. About 24% were inconclusive and are not listed. Calls come from the whole dose curve; as a rule, active = well fitted curve in the direction sought with a large enough effect; inconclusive = small, poorly fitted or top-dose-only effect, or effect the other way; inactive = no such curve, though single readings can be large or run the other way. Some of the results follow.
Returns: one label drawn from y for active, n for inactive

Use these answered entries as a reference point.
In [3]: df
Out[3]:
                                   molecule  discrete_label
0        CCCCOc1cc(C[C@@H]2CNC(=O)N2)ccc1OC               y
1  COc1cc(NC(=S)NC(=O)c2c(OC)cccc2OC)ccc1NC(=O)c1cccs1               n
2  O=C1OCCC1Sc1nnnn1-c1ccccc1 (stereo not drawn)               n
3  CCNc1ncc2nc(-c3ccc(OC)cc3)c(=O)n(Cc3ccc(F)cc3)c2n1               n
4  O=C(N/N=C/c1c[nH]c2ccc(Br)cc12)c1ccn(Cc2ccc(Cl)cc2)n1               y
5  O=C(Nc1cc(C(F)(F)F)ccc1-n1cncn1)c1ccc(Br)cc1               y
6   Cc1cnn(-c2ccc3nnc(-c4ccc(Cl)cc4)n3n2)c1               y
7  CC(C)NC(=O)N1CCC2(CC1)CCN(C(=O)c1ccco1)CC2               n
8  C#C[C@]1(O)CC[C@H]2[C@H]3CCC4=Cc5oncc5C[C@]4(C)[C@@H]3CC[C@]21C               y
9  CS(=O)(=O)N1CCC[C@@]2(CCN(C(=O)Nc3ccccc3)C2)C1               n

Incoming: Answer briefly: the call reported for COC(=O)CSc1nnc(C)n1-c1cccc(OC)c1 in this assay.
Outgoing: n

Incoming: Would you mind telling me which call this test gave O=[N+]([O-])c1cccc2cn[nH]c12 ?
Outgoing: y

Incoming: What classification did O=C(O)CC(c1ccccc1)n1cnnn1 (stereo not drawn) end up with in this test?
Outgoing: n

Incoming: Hello, I am checking results. What call was entered for C[C@@]12CCC(=O)C=C1CC[C@H]1[C@H]3CC[C@](O)(C(=O)CO)[C@]3(C)CC(=O)[C@@H]12 ?
Outgoing: n

Incoming: // return assay outcome for COc1ccccc1NC(=O)Cn1cncc1-c1ccc([N+](=O)[O-])cc1
Outgoing: n

====

Target: Cytochrome P450 1A2 (Homo sapiens) (UniProt P05177)
Assay: Cytochrome panel assay with activity outcomes
Details: recombinant CYP, pro-luciferin dealkylation, luminescence, p450-cyp1a2; series mostly up to 57.1 µM
Method: The P450 gene superfamily is involved in the metabolism and clearance of xenobiotics. This assay used various human CYP P450 isozymes to measure the dealkylation of various pro-luciferin substrates to luciferin. The luciferin is then measured by luminescence after the addition of a luciferase detection reagent. […] Inhibitors and some substrates limit the production of luciferin, and decrease measured luminescence. […] 8, Detection, 1 sec, ViewLux luminescent read […]
Out of some 16,000 compounds screened, about 5,700 (36%) were called active. Inconclusive results (about 24%) are left out. Calls come from the whole dose curve; as a rule, active = well fitted curve in the direction sought with a large enough effect; inconclusive = small, poorly fitted or top-dose-only effect, or effect the other way; inactive = no such curve, though single readings can be large or run the other way. This is one part of the list.
Allowed answers: active, inactive

Look over these answered cases.
>>> df
                                   compound  discrete_label
0  CC1=C(C#N)C(Nc2ccc(Cl)cn2)(C(F)(F)F)C(=O)N1 (stereo not given)        inactive
1             c1csc(CNc2cc(-c3ccoc3)ncn2)c1          active
2  CC(=O)N(/N=C/c1cccc(C)c1)c1nc(-c2ccc(Br)cc2)cs1          active

Incoming: Short answer needed: outcome of this test for COc1ccc(NC(=O)c2ccc(C(=O)c3cc(OC)ccc3OC)cc2)cc1 ?
Outgoing: inactive

Incoming: For CCc1cc2c(NCc3ccco3)ncnc2s1 , which call appears in the assay record?
Outgoing: active

Incoming: Look up the recorded call for COc1ccc(NC(=O)N2CCCC3(CCN(C(=O)c4cc(C(F)(F)F)cc(C(F)(F)F)c4)CC3)C2)cc1 in this test.
Outgoing: inactive

Incoming: Check the results log: what was the call for COc1ccc(C(=O)NC2(C(F)(F)F)C(=O)Nc3c2c(=O)[nH]c(=O)n3CCc2ccc(OC)c(OC)c2)cc1 (stereo not given) ?
Outgoing: inactive

Incoming: Name the outcome recorded for Clc1cc2c(c(CSC3=NCN(CC4CC4)CN3)c1)OCOC2 in the assay.
Outgoing: active

Incoming: Check the results log: what was the call for CCN1CCCC1Cn1cnc2c([nH]c3ccc(C)cc32)c1=O (stereo not given) ?
Outgoing: active

Incoming: Name the outcome recorded for Cc1nc2c(C(=O)NCc3ccc4c(c3)OCO4)c[nH]n2c(=O)c1Cc1ccccc1F in the assay.
Outgoing: active

Incoming: Would you mind telling me which call this test gave O=C(c1ccncc1)N1CCC2(CC1)CCN(c1ccccc1)CC2 ?
Outgoing: inactive

Incoming: // return assay outcome for O=c1onc(-c2cccs2)n1Cc1ccccc1
Outgoing: active

The origin of these recorded values is PubChem BioAssay AID1851.
